// data source = the supplement of paper PMC13380429

Reported values of cell viability for individual entries
Test system: U2OS
Test: cell viability relative to DMSO; higher = less toxic
Conditions: 72 h; 1 nM
A complete answer gives the number followed by the unit.

Worked set:
CHEMICAL_STRING	MEASUREMENT_LABEL	RESULT
Nc1n[n+]([O-])c2ccccc2[n+]1[O-]	cell viability	100%
COc1ccc(CCNCc2ccc(OCc3ccc(Cl)nc3)c(OC)c2)cc1OC	cell viability	98%
c1ccc(-c2nc(CN3CCN(c4ncccn4)CC3)c[nH]2)cc1	cell viability	100%
FC(F)(F)c1cc(CO[C@H]2CCCN[C@H]2c2ccccc2)cc(C(F)(F)F)c1	cell viability	104%

Data request: Data request, read-out cell viability, for `O=C(CCBr)N1CCN(C(=O)CCBr)CC1`
Data returned: 97.8%

----------
Reported values of cell viability for individual entries
Test system: U2OS
Experiment: cell viability relative to DMSO; higher = less toxic
Conditions: 72 h; 10000 nM
The answer is to be given in %; state only the numeric part.

Worked set:
MOLECULE	cell viability [%]
CCCCCNC(=N)N/N=C/c1c[nH]c2ccc(OC)cc12	95.9
COc1ccc(NC(=O)c2ccc(C(=N)N(C)C)cc2)c(C(=O)Nc2ccc(Cl)cn2)c1	97.8

Please turn your attention to the following entry.
Data request: Data request, read-out cell viability, for CN(C)CC/C=C1\c2ccccc2CSc2ccccc21 [dosulepin]
Data returned: 96.6

----------
System: Caco-2
Test: cell viability relative to DMSO; higher = less toxic
Conditions: 72 h; 10000 nM
Threshold check on cell viability: strictly below 90% is yes (1); on or above 90% is no (0).

Before answering, review these 4 worked examples.
MOLECULE	CATEGORY
CCc1cnc(N2CCC(c3nc(COc4ccc(-n5cnnn5)cc4)cs3)CC2)nc1	yes (1)
CC(C(=O)O)c1ccc2c(c1)[nH]c1ccc(Cl)cc12 (configuration not stated)	no (0)
CC(C)(OCc1nn(Cc2ccccc2)c2ccccc12)C(=O)O	no (0)
NC(N)=Nc1nc(CSCCN/C=N/S(=O)(=O)c2ccc(Br)cc2)cs1	no (0)

Data request: Quick check: does `NC[C@H]1O[C@H](O[C@H]2[C@H](O)[C@@H](O[C@H]3O[C@H](CO)[C@@H](O)[C@H](N)[C@H]3O)[C@H](N)C[C@@H]2N)[C@H](N)C[C@@H]1O` have cell viability under 90%?
Data returned: no (0)

Data request: # repeat for `Clc1ccc2c(NCCNc3ccnc4cc(Cl)ccc34)ccnc2c1`
Data returned: yes (1)

Data request: # repeat for `Fc1ccc(-c2c3cccc(C(F)(F)F)c3nn2Cc2ccc(F)cc2Cl)cc1`
Data returned: yes (1)

Data request: # repeat for `CNCCCOc1cc(F)c(-c2c(Cl)nc3ncnn3c2N[C@@H](C)C(F)(F)F)c(F)c1`
Data returned: yes (1)

----------
System: Vero E6
Experiment: cell viability relative to DMSO; higher = less toxic
Conditions: 72 h; 1 nM
Where a name gives a salt, the structure may show the parent alone.
MEASUREMENT_LABEL: cell viability (%)
The answer is to be given in %; state only the numeric part.

Worked set:
MOLECULE	TARGET_SYSTEM	UNIT_NAME	QUANTITATIVE_READOUT
COc1ccc2ccc(=O)oc2c1CC=C(C)C	Vero E6	%	95.1
OB1OCc2cc(Cl)ccc21	Vero E6	%	101
NCC(=O)O	Vero E6	%	102
C[S+]([O-])CCCCN=C=S (configuration not stated)	Vero E6	%	103
Cc1coc2c1C(=O)C(=O)c1c-2ccc2c(C)cccc12	Vero E6	%	91.9

Data request: Data request, read-out cell viability, for `CCCC[C@H](NC(=O)[C@@H]1[C@@H]2[C@H](CN1C(=O)[C@@H](NC(=O)NC1(CS(=O)(=O)C(C)(C)C)CCCCC1)C(C)(C)C)C2(C)C)C(=O)C(=O)NC1CC1`
Data returned: 98.1

Data request: # repeat for `CCCCOc1ccc(OCCCN2CCOCC2)cc1`
Data returned: 103

Data request: # repeat for `O=C(CN1C2=NCCN2c2ccccc21)c1ccc(-c2ccccc2)cc1`
Data returned: 103

Data request: # repeat for Cc1ccc(C23CNCC2C3)cc1 (configuration not stated)
Data returned: 97.7

Data request: # repeat for `Nc1ccc(C(=O)NCC(=O)O)cc1`
Data returned: 97.5

Data request: # repeat for `CCOC(=O)[C@@H](C)Oc1ccc(Oc2nc3ccc(Cl)cc3o2)cc1`
Data returned: 96.8

Data request: # repeat for `COc1cccc(OCCCN)c1-c1cc(Nc2cnc(C#N)cn2)n[nH]1`
Data returned: 92.9

Data request: # repeat for CC(=O)N(CC(O)CO)c1c(I)c(C(=O)NCCO)c(I)c(C(=O)NCC(O)CO)c1I (configuration not stated)
Data returned: 113

Data request: # repeat for `c1ccc2c(CCNc3ccc(Nc4ccncc4)cc3)c[nH]c2c1`
Data returned: 93.1

Data request: # repeat for CN(C)CCOc1ccc(/C(=C(/CCCl)c2ccccc2)c2ccccc2)cc1 [Toremifene citrate]
Data returned: 99.6
